# assay_target: P2X purinoceptor 2 (Homo sapiens) (UniProt Q9UBL9)
# Sequence (whole entry): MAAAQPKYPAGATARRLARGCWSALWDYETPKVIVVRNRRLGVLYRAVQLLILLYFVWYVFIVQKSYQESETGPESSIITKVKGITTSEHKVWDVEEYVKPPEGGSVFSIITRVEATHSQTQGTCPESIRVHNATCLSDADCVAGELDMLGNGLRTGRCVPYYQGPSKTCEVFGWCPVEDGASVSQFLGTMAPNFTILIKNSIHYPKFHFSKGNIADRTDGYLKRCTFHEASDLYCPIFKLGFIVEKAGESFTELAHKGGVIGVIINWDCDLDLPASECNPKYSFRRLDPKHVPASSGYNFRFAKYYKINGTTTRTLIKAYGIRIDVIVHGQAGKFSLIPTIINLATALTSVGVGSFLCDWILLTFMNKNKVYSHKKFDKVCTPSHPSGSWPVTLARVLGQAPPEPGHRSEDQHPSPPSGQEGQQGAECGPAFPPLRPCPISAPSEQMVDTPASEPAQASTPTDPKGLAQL
# experimental_details: Antagonist activity against human P2X2R stably transfected in human 1321N1 cells at 50 uM incubated for 30 mins by Fura-2 AM staining based calcium influx assay relative to control
# Format: cell-based
# Set-up: scale not given: the % may be the effect or the level left
Hi there, I'd appreciate the recorded Activity for every entry that follows.
Note: a bare number is incomplete; add the unit.

Task item: Give the reported Activity for "NS(=O)(=O)c1cccc(NC(=S)NC(=O)c2ccc3c(c2)OCO3)c1" (system: P2X purinoceptor 2 (Homo sapiens) (UniProt Q9UBL9)).
Reply: 17%

Task item: Quick one: "NS(=O)(=O)c1ccc(CCNC(=S)NC(=O)c2ccc3c(c2)OCO3)cc1"
Reply: 33%

Task item: Quick one: "O=C(NC(=S)Nc1ccc(Br)cc1)c1ccc2c(c1)OCO2"
Reply: 35%

Task item: Quick one: "O=C(NC(=S)Nc1cc(Br)cc(C(F)(F)F)c1)c1ccc2c(c1)OCO2"
Reply: 22%

Task item: Quick one: "COc1ccccc1NC(=S)NC(=O)c1ccc2c(c1)OCO2"
Reply: 39%

Task item: Quick one: "COc1cccc(NC(=S)NC(=O)c2ccc3c(c2)OCO3)c1"
Reply: 22%

====

# Test system: HEK293
# experimental_details: Cytotoxicity against HEK293 cells assessed as reduction in cell viability at 50 uM after 24 hrs by MTT assay relative to control
# Format: toxicity, cell-based
# assay_setup: human, hek293, 24 h
Grouping by measured Activity is done with the following cut points: bottom range (below 4%), center range (4% to below 6%), top range (6% or more)

Task item: For this compound, which bin applies? "NS(=O)(=O)c1cccc(NC(=S)NC(=O)c2ccc3c(c2)OCO3)c1"
Reply: center range

Task item: Quick one: "Cc1nc(/N=N/c2ccc(S(=O)(=O)O)cc2S(=O)(=O)O)c(COP(=O)(O)O)c(C=O)c1O"
Reply: top range

Task item: Quick one: "O=C(NC(=S)Nc1c(Br)ccc(C(F)(F)F)c1Br)c1ccc2c(c1)OCO2"
Reply: top range

Task item: Quick one: "CC(C)c1cc(Br)c(NC(=O)Nc2cccnc2)c(Br)c1"
Reply: top range

Task item: Quick one: "O=C(NC(=S)Nc1cccc2cccnc12)c1ccc2c(c1)OCO2"
Reply: bottom range

Task item: Quick one: "O=C(NC(=S)Nc1cc(Br)cc(C(F)(F)F)c1)c1ccc2c(c1)OCO2"
Reply: center range

Task item: Quick one: "COc1cccc(NC(=S)NC(=O)c2ccc3c(c2)OCO3)c1"
Reply: bottom range

Task item: Quick one: "Cc1cc(Br)ccc1NC(=S)NC(=O)c1ccc2c(c1)OCO2"
Reply: bottom range

Task item: Quick one: "CC(C)c1ccc(NC(=S)NC(=O)c2ccc3c(c2)OCO3)c(Br)c1"
Reply: bottom range
